Ki values, listed per item
molecular target: 5-HT7R (Homo sapiens); assay: 5-HT7 receptor binding affinity
Sequence (P34969 whole entry): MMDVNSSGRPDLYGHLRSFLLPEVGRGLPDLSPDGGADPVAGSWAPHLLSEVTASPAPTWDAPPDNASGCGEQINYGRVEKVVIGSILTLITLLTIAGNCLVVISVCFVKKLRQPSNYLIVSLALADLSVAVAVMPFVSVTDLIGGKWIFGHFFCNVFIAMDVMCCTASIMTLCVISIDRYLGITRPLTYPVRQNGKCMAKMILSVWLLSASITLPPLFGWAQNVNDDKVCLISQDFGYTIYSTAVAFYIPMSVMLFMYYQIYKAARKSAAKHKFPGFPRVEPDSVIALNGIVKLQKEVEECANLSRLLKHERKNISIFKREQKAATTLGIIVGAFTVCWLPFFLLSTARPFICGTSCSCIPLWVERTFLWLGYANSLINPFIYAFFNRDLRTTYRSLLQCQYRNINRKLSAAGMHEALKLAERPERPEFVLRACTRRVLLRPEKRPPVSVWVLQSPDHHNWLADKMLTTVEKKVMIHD
metricName: Ki (nM)

smilesrepr=COc1ccc(-c2c(O)c(OC)cc3c2CN(CCc2ccccc2F)CC3)c(OC)c1 metricname=Ki endpointunit=nM quantitativereadout=3.5
smilesrepr=COc1ccccc1-c1c2c(cc(OC)c1OC)CCN(CCCc1ccncc1)C2 metricname=Ki endpointunit=nM quantitativereadout=7.1
smilesrepr=COc1ccccc1-c1c(O)c(OC)cc2c1CN(CCCc1ccncc1)CC2 metricname=Ki endpointunit=nM quantitativereadout=5.8
smilesrepr=COc1ccccc1-c1c(O)c(OC)cc2c1CN(CCCc1ccc([N+](=O)[O-])cc1)CC2 metricname=Ki endpointunit=nM quantitativereadout=1.4
smilesrepr=COc1ccccc1-c1c(O)c(OC)cc2c1CN(CCCc1cccnc1)CC2 metricname=Ki endpointunit=nM quantitativereadout=4.9

----------
logD values, listed per item
assay: log D; assay type: physicochemical
metricName: logD

smilesrepr=COc1ccccc1-c1c(O)c(OC)cc2c1CN(CCCc1ccc([N+](=O)[O-])cc1)CC2 metricname=logD quantitativereadout=3.66
smilesrepr=COc1ccccc1-c1c(O)c(OC)cc2c1CN(CCCc1cccnc1)CC2 metricname=logD quantitativereadout=1.7
smilesrepr=COc1ccc(-c2c(O)c(OC)cc3c2CN(CCc2ccccc2F)CC3)c(OC)c1 metricname=logD quantitativereadout=3.98
smilesrepr=COc1ccccc1-c1c2c(cc(OC)c1OC)CCN(CCCc1ccncc1)C2 metricname=logD quantitativereadout=2.93
smilesrepr=COc1ccccc1-c1c(O)c(OC)cc2c1CN(CCCc1ccncc1)CC2 metricname=logD quantitativereadout=1.68

----------
Ki values, listed per item
biological target: 5-HT2AR (Homo sapiens, UniProt P28223); experiment: 5-HT2A receptor binding affinity
Sequence (P28223 whole entry): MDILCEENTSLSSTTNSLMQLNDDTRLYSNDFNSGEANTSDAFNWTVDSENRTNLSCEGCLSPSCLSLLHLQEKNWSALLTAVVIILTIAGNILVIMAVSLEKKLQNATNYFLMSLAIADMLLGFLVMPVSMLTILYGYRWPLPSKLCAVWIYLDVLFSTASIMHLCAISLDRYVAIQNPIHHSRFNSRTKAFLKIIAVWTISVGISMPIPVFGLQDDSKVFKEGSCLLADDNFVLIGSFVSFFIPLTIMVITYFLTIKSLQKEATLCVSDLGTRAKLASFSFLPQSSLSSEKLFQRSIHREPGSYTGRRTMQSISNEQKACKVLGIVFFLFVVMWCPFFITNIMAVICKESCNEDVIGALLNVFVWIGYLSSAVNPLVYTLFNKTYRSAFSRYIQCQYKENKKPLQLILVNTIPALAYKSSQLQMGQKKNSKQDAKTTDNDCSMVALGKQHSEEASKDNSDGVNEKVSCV
metricName: Ki (nM)

compound="COc1ccccc1-c1c2c(cc(OC)c1OC)CCN(CCCc1ccncc1)C2 [Compound 10]" subjectoftest="5-HT2AR (Homo sapiens, UniProt P28223)" readoutrelation=> quantitativereadout=1000
compound="COc1ccccc1-c1c(O)c(OC)cc2c1CN(CCCc1ccncc1)CC2 [Compound 8]" subjectoftest="5-HT2AR (Homo sapiens, UniProt P28223)" readoutrelation=> quantitativereadout=1000
compound="COc1ccccc1-c1c(O)c(OC)cc2c1CN(CCCc1ccc([N+](=O)[O-])cc1)CC2 [Compound 7]" subjectoftest="5-HT2AR (Homo sapiens, UniProt P28223)" readoutrelation== quantitativereadout=70
compound="COc1ccc(-c2c(O)c(OC)cc3c2CN(CCc2ccccc2F)CC3)c(OC)c1 [Compound 6]" subjectoftest="5-HT2AR (Homo sapiens, UniProt P28223)" readoutrelation== quantitativereadout=2.2
compound="COc1ccccc1-c1c(O)c(OC)cc2c1CN(CCCc1cccnc1)CC2 [Compound 9]" subjectoftest="5-HT2AR (Homo sapiens, UniProt P28223)" readoutrelation=> quantitativereadout=1000
